target: T1, Aβ oligomers prepared from Amyloid β-protein, Human 1-42 peptide (human, UniProt P05067 672-713); experiment: SPR (Biacore T100), Aβ oligomers amine-coupled on CM5 chip, antibody injected, Bivalent Analyte model (kd1)
T1 construct: domain: Amyloid β-protein, Human 1-42 peptide; Non-covalent oligomer of synthetic Aβ1-42; Immobilized on a CM5 chip by amine coupling; also called amyloid β protein oligomer
T1 sequence (P05067 672-713 limits assumed): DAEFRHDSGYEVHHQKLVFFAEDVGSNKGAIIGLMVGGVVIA
readoutLabel: koff (s⁻¹)
Lab book: enter the figure in s⁻¹, no units written.

Would you please look over these solved cases?
Kindly note the recorded koff for anti-Aβ oligomer humanized antibody HV0LV2a (antibody, V domains shown, also called 6E4HV0 + LV2a) VH: QVQLVQSGAEVKKPGASVKVSCKASGYTFTSYWMHWVRQAPGQGLEWMGEINPRNGGTNNNENFKRRVTITADTSTSTAYMELSSLRSEDTAVYYCARDGNYDPFAYWGQGTLVTVSS VL: DIVMTQSPLSLPVTPGEPASISCRSSQSLVHSNGNTYLHWYLQKPGQSPKLLIYKVSNRFSGVPDRFSGSGSGTDFTLKISRVEAEDVGVYFCSQSTHVPPYTFGQGTKLEIK , which is 0.00039

Kindly note the recorded koff for anti-Aβ oligomer humanized antibody HV0LV4 (antibody, V domains shown, also called 6E4HV0 + LV4) VH: QVQLVQSGAEVKKPGASVKVSCKASGYTFTSYWMHWVRQAPGQGLEWMGEINPRNGGTNNNENFKRRVTITADTSTSTAYMELSSLRSEDTAVYYCARDGNYDPFAYWGQGTLVTVSS VL: DVVMTQSPLSLPVTLGEPASISCRSSQSLVHSNGNTYLHWYLQKPGQSPKLLIYKVSNRFSGVPDRFSGSGSGTDFTLKISRVEAEDVGVYFCSQSTHVPPYTFGQGTKLEIK , which is 0.0005

Kindly note the recorded koff for anti-Aβ oligomer humanized antibody HV0LV0 (antibody, V domains shown, Whole humanized antibody expressed from vector pKANTEX93 (WO 97/10354) with human constant regions; Produced in FUT8 knockout CHO/DG44 cells (no core fucose); also called 6E4HV0 + 6E4LV0) VH: QVQLVQSGAEVKKPGASVKVSCKASGYTFTSYWMHWVRQAPGQGLEWMGEINPRNGGTNNNENFKRRVTITADTSTSTAYMELSSLRSEDTAVYYCARDGNYDPFAYWGQGTLVTVSS VL: DIVMTQSPLSLPVTPGEPASISCRSSQSLVHSNGNTYLHWYLQKPGQSPQLLIYKVSNRFSGVPDRFSGSGSGTDFTLKISRVEAEDVGVYYCSQSTHVPPYTFGQGTKLEIK , which is 0.00069

---
Kindly note the recorded koff for anti-Aβ oligomer humanized antibody HV12LV4 (antibody, V domains shown) VH: QVQLVQSGAEVVKPGASVKLSCKASGYTFTSYWMHWVKLAPGQGFEWIGEINPRNGGTNNNENFKRKATLTVDKSTSTAYMELSSLRSEDTAVYYCTRDGNYDPFAYWGQGTLVTVSS VL: DVVMTQSPLSLPVTLGEPASISCRSSQSLVHSNGNTYLHWYLQKPGQSPKLLIYKVSNRFSGVPDRFSGSGSGTDFTLKISRVEAEDVGVYFCSQSTHVPPYTFGQGTKLEIK , which is 0.00081
